Measured 0.1 µM (% DMSO) values are reported for all entries that follow.
tested on: expanded OPCs; experiment: cells; conditions: alamarBlue viability of expanded OPCs, compound at 0.1 µM, relative to DMSO control
Give just the number in % DMSO; leave the unit off.

Answered cases to consult:
[[record]]
compound = "CCn1cc(C(=O)O)c(=O)c2cc(F)c(N3CCNCC3)cc21 [Norfloxacin]"
reported_result = 111.0

[[record]]
compound = "Cc1nccn1CC1CCc2c(c3ccccc3n2C)C1=O (stereo not drawn) [Ondansetron]"
reported_result = 95.7


Let's switch to this compound now.
Prompt: Could you share which 0.1 µM (% DMSO) value was measured for CCN(CC)CCOc1ccc(C(=C(Cl)c2ccccc2)c2ccccc2)cc1 [Clomiphene] ?
Response: 172.3

* * *

system: expanded OPCs; assay: cells; settings: alamarBlue viability of expanded OPCs, compound at 0.1 µM, sheet All Tox data
Readout label: 0.1 µM (% DMSO)
Give just the number in % DMSO; leave the unit off.

Answered cases to consult:
[[record]]
molecule = "Cl.FC(F)(F)c1cccc(N2CCNCC2)c1"
reported_result = 91.5

[[record]]
molecule = "CN1CC[C@@H](c2ccc(F)cc2)[C@H](COc2ccc3c(c2)OCO3)C1"
reported_result = 86.7

[[record]]
molecule = "O=C1NC(C(=O)O)CS1 (centres unmarked)"
reported_result = 78.9


Prompt: Could you share which 0.1 µM (% DMSO) value was measured for Cl.NC1CCN(c2cccc(Cl)n2)CC1 [SR57227A] ?
Response: 85.7

Prompt: Could you share which 0.1 µM (% DMSO) value was measured for CCCCC/C=C\C/C=C\C/C=C\C/C=C\CCCC(=O)Nc1ccc(O)cc1 ?
Response: 87.9

* * *

system: expanded OPCs; assay: cells; conditions: alamarBlue viability of expanded OPCs, compound at 0.1 µM, relative to DMSO control
Measured 0.1 µM (% DMSO) values are reported for all entries that follow.
Give just the number in % DMSO; leave the unit off.

Answered cases to consult:
[[record]]
molecule = "NNCCc1ccccc1 [Phenelzine]"
reported_result = 94.0

[[record]]
molecule = "CCOC(=O)c1cncn1[C@H](C)c1ccccc1 [Etomidate]"
reported_result = 89.9

[[record]]
molecule = "CCCC(=O)Nc1ccc(OCC(O)CNC(C)C)c(C(C)=O)c1 (stereo not drawn) [Acebutolol]"
reported_result = 94.3

[[record]]
molecule = "CCCSc1ccc2nc(NC(=O)OC)[nH]c2c1 [Albendazole]"
reported_result = 55.7

[[record]]
molecule = "CC(C)NCC(O)COc1cccc2[nH]ccc12 (stereo not drawn) [Pindolol]"
reported_result = 88.9


Prompt: So what 0.1 µM (% DMSO) did CC(C)N(CCC(C(N)=O)(c1ccccc1)c1ccccn1)C(C)C (stereo not drawn) [Disopyramide] get with expanded OPCs?
Response: 89.6

Prompt: So what 0.1 µM (% DMSO) did OCCN(CCO)c1nc(N2CCCCC2)c2nc(N(CCO)CCO)nc(N3CCCCC3)c2n1 [Dipyridamole] get with expanded OPCs?
Response: 107.4

Prompt: So what 0.1 µM (% DMSO) did NNC(=O)c1ccncc1 [Isoniazid] get with expanded OPCs?
Response: 98.2

* * *

Measured viability at 10 µM values are reported for all entries that follow.
system: expanded OPCs; assay: cells; settings: Rattus norvegicus, 72 h, read-out: 10 µM (% DMSO), alamarBlue viability, NCC library compound at 10 µM, sheet "All Tox data"
Give just the number in %; leave the unit off.

[[record]]
compound = "CC(=O)NS(=O)(=O)c1ccc(N)cc1 [Sulfacetamide]"
test_target = "expanded OPCs"
reported_result = 89.7

[[record]]
compound = "C#C[C@]1(OC(C)=O)CC[C@H]2[C@@H]3CCC4=CC(=O)CC[C@@H]4[C@H]3CC[C@@]21C [Norethisterone acetate]"
test_target = "expanded OPCs"
reported_result = 101

[[record]]
compound = "CN(C)CCC(c1ccc(Br)cc1)c1ccccn1 (centres unmarked)"
test_target = "expanded OPCs"
reported_result = 39.2

[[record]]
compound = "O=C(c1ccc(F)cc1)C1CCN(CCn2c(=S)[nH]c3ccccc3c2=O)CC1"
test_target = "expanded OPCs"
reported_result = 56

[[record]]
compound = "CCC1=C[C@@H]2CN(C1)Cc1c([nH]c3ccccc13)[C@@](C(=O)OC)(c1cc3c(cc1OC)N(C)[C@H]1[C@@](O)(C(=O)OC)[C@H](OC(C)=O)[C@]4(CC)C=CCN5CC[C@]31[C@@H]54)C2"
test_target = "expanded OPCs"
reported_result = 11.1


Let's switch to this compound now.
Prompt: Could you share which viability at 10 µM value was measured for O=C(CCCN1CCC(O)(c2ccc(Cl)cc2)CC1)c1ccc(F)cc1 ?
Response: 45.7

* * *

Measured viability at 1 µM values are reported for all entries that follow.
system: expanded OPCs; experiment: cells; details: Rattus norvegicus, 72 h, read-out: 1 µM (% DMSO), alamarBlue viability of expanded OPCs, compound at 1 µM, sheet All Tox data
Give just the number in %; leave the unit off.

Prompt: Could you share which viability at 1 µM value was measured for CCN1CCCC1CNC(=O)c1cc(S(N)(=O)=O)ccc1OC (stereo not shown) [Sulpiride] ?
Response: 116

Prompt: Could you share which viability at 1 µM value was measured for CC1(C)O[C@@H]2[C@@H](CO[C@@]3(COS(N)(=O)=O)OC(C)(C)O[C@@H]23)O1 [Topiramate] ?
Response: 93.5

Prompt: Could you share which viability at 1 µM value was measured for CCCCCCNC(=O)n1cc(F)c(=O)[nH]c1=O ?
Response: 76.1

Prompt: Could you share which viability at 1 µM value was measured for CS(=O)(=O)c1ccc(C2=C(c3ccccc3)C(=O)OC2)cc1 ?
Response: 97.2

* * *

tested on: expanded OPCs; assay: cells; conditions: Rattus norvegicus, 72 h, read-out: 10 µM (% DMSO), alamarBlue viability, NCC library compound at 10 µM, sheet "All Tox data"
Readout label: viability at 10 µM (%)
Give just the number in %; leave the unit off.

Answered cases to consult:
[[record]]
molecule = "CN1C(C(=O)Nc2ccccn2)=C(O)c2ccccc2S1(=O)=O"
measurement_units = "%"
reported_result = 87.1

[[record]]
molecule = "CC1=NS(=O)(=O)c2cc(Cl)ccc2N1 [Diazoxide]"
measurement_units = "%"
reported_result = 82.6

[[record]]
molecule = "CC(C)/N=c1\\cc2n(-c3ccc(Cl)cc3)c3ccccc3nc-2cc1Nc1ccc(Cl)cc1"
measurement_units = "%"
reported_result = 19


Prompt: So what viability at 10 µM did CN(C)CCOc1ccc(/C(=C(/CCCl)c2ccccc2)c2ccccc2)cc1 [Toremifene, reference compound] get with expanded OPCs?
Response: 9.9

Prompt: So what viability at 10 µM did CCCCC[C@H](O)/C=C/[C@H]1[C@H](O)CC(=O)[C@@H]1CCCCCCC(=O)O get with expanded OPCs?
Response: 81.6

Prompt: So what viability at 10 µM did OCc1cccnc1 get with expanded OPCs?
Response: 89.3

Prompt: So what viability at 10 µM did CN(C)c1nc(N(C)C)nc(N(C)C)n1 get with expanded OPCs?
Response: 85

Prompt: So what viability at 10 µM did CC(=O)NC[C@H]1CN(c2ccc(N3CCOCC3)c(F)c2)C(=O)O1 get with expanded OPCs?
Response: 94.7

Prompt: So what viability at 10 µM did C/C=C1\[C@H]2C=C(C)C[C@]1(N)c1ccc(=O)[nH]c1C2 get with expanded OPCs?
Response: 93.8

Prompt: So what viability at 10 µM did CN(C)[C@@H]1C(O)=C(C(N)=O)C(=O)[C@@]2(O)C(O)=C3C(=O)c4c(O)ccc(Cl)c4[C@@H](O)[C@H]3C[C@@H]12 get with expanded OPCs?
Response: 88.4

* * *

Measured activation at 2 µM values are reported for all entries that follow.
system: acutely dissociated and purified rat OPCs; experiment: Acute OL differentiation assay (MBP expression/cell, immunofluorescent image quantification); type: cell-based; details: Rattus norvegicus, test compound at 2 uM; MBP expression relative to quetiapine; NCC library screen, sheet "All OLga data"; read-out: 2 uM (% Quet)
Give just the number in %; leave the unit off.

Prompt: So what activation at 2 µM did CCn1cc(C(=O)O)c(=O)c2ccc(C)nc21 get with acutely dissociated and purified rat OPCs?
Response: -14.9

Prompt: So what activation at 2 µM did Nc1ccn([C@@H]2CS[C@H](CO)O2)c(=O)n1 get with acutely dissociated and purified rat OPCs?
Response: 2.9

Prompt: So what activation at 2 µM did Cc1cccc(C)c1OCC(C)N (stereo not drawn) get with acutely dissociated and purified rat OPCs?
Response: -15.2

* * *

system: expanded OPCs; experiment: cells; details: Rattus norvegicus, 72 h, read-out: 10 µM (% DMSO), alamarBlue viability of expanded OPCs, compound at 10 µM, sheet All Tox data
Measured viability at 10 µM values are reported for all entries that follow.
Give just the number in %; leave the unit off.

[[record]]
molecule = "COC(=O)CCc1ccc(OCC(O)CNC(C)C)cc1 (stereo not shown) [Esmolol, reference compound]"
test_target = "expanded OPCs"
readout_label = "viability at 10 µM"
reported_result = 113

[[record]]
molecule = "CC(=O)O[C@H]1C[C@@H]2CC[C@@H]3[C@H](CC[C@@]4(C)[C@H]3C[C@H]([N+]3(C)CCCCC3)[C@@H]4OC(C)=O)[C@@]2(C)C[C@@H]1[N+]1(C)CCCCC1"
test_target = "expanded OPCs"
readout_label = "viability at 10 µM"
reported_result = 88

[[record]]
molecule = "CN(C)CCN(Cc1ccccc1)c1ccccn1"
test_target = "expanded OPCs"
readout_label = "viability at 10 µM"
reported_result = 80.7

[[record]]
molecule = "CNCCCC12CCC(c3ccccc31)c1ccccc12"
test_target = "expanded OPCs"
readout_label = "viability at 10 µM"
reported_result = 13.8


Prompt: Could you share which viability at 10 µM value was measured for Nc1ccn([C@@H]2O[C@H](CO)[C@@H](O)[C@@H]2O)c(=O)n1 ?
Response: 43.1

Prompt: Could you share which viability at 10 µM value was measured for COc1cc2nc(N3CCN(C(=O)C4CCCO4)CC3)nc(N)c2cc1OC (stereo not shown) ?
Response: 78.7
